This collection of values is drawn from paper PMC11314621.

Listing of recorded % inhibition @ 20 µM, DTT by entry.
TGT: SARS-CoV-2 3CLpro (Severe acute respiratory syndrome coronavirus 2)
Construct: Each well contained 25 nM of SARS-CoV-2 3CL^Pro and eCFP-Venus biosensor (500 nM)
EXPERIMENT DESCRIPTION: biochemical
STUDY CONDITIONS: 20 µM; with DTT (4 mM)

Known results for compounds:
CC(C)[C@@H](NC(=O)C(=O)c1c[nH]c2cc(Br)ccc12)C(=O)O [Compound 56, 6-bromoindolyl-3-glyoxyl-D-valine]; 2.7%
CC(C)[C@H](NC(=O)C(=O)c1c[nH]c2ccc(Br)cc12)C(=O)O [Compound 53, 5-bromoindolyl-3-glyoxyl-L-valine]; 1.3%
O=C(N[C@@H](CO)C(=O)O)C(=O)c1c[nH]c2ccc(Br)cc12 [Compound 43, 5-bromoindolyl-3-glyoxyl-L-serine]; 2.0%
CC(C)[C@H](NC(=O)C(=O)c1c[nH]c2cc(Br)ccc12)C(=O)O [Compound 55, 6-bromoindolyl-3-glyoxyl-L-valine]; 3.0%
CC(C)[C@@H](NC(=O)C(=O)c1c[nH]c2ccc(Br)cc12)C(=O)O [Compound 54, 5-bromoindolyl-3-glyoxyl-D-valine]; 1.0%
N=C(N)NCCC[C@@H](NC(=O)C(=O)c1c[nH]c2ccc(Br)cc12)C(=O)O [Compound 30, 5-bromoindolyl-3-glyoxyl-D-arginine]; 1.0%

Turning now to a further record.
Look up % inhibition @ 20 µM, DTT: O=C(N[C@H](Cc1ccc(O)cc1)C(=O)O)C(=O)c1c[nH]c2ccc(Br)cc12 [Compound 50, 5-bromoindolyl-3-glyoxyl-D-tyrosine]
0.9%

* * *

TGT: α-chymotrypsin from bovine pancreas (Bos taurus)
Construct: α-chymotrypsin from bovine pancreas (Sigma, C4129); purchased Sigma C4129; host or cells: bovine pancreas
EXPERIMENT DESCRIPTION: Serine protease assay, chymotrypsin
Format: biochemical
STUDY CONDITIONS: 10 µM; remaining enzyme activity
% enzyme activity @ 10 µM, chymotrypsin strictly less than 90% = fulfilled. Otherwise not fulfilled.

Below are worked cases with known answers.
N=C(N)NCCC[C@H](NC(=O)C(=O)c1c[nH]c2cc(Br)ccc12)C(=O)O; not fulfilled
N=C(N)NCCC[C@@H](NC(=O)C(=O)c1c[nH]c2cc(Br)ccc12)C(=O)O; not fulfilled
CC(C)[C@@H](NC(=O)C(=O)c1c[nH]c2cc(Br)ccc12)C(=O)O; not fulfilled

Attention now shifts to the item below.
In the record for O=C(N[C@H](Cc1c[nH]c2ccccc12)C(=O)O)C(=O)c1c[nH]c2cc(Br)ccc12 , is % enzyme activity @ 10 µM, chymotrypsin less than 90%?
fulfilled

* * *

TGT: α-chymotrypsin from bovine pancreas (Bos taurus, UniProt P00766)
Construct: α-chymotrypsin from bovine pancreas (Sigma, C4129); purchased Sigma C4129; host or cells: bovine pancreas
EXPERIMENT DESCRIPTION: Serine protease assay, chymotrypsin
Format: biochemical
STUDY CONDITIONS: 10 µM; remaining enzyme activity
ENDPOINT NAME: % enzyme activity @ 10 µM, chymotrypsin (%)
Give a bare numeral; the unit % is implied.

O=C(N[C@@H](Cc1ccc(O)cc1)C(=O)O)C(=O)c1c[nH]c2ccc(Br)cc12; 82.9

GET /values?readout=% enzyme activity @ 10 µM, chymotrypsin&item= O=C(N[C@H](Cc1ccc(O)cc1)C(=O)O)C(=O)c1c[nH]c2cc(Br)ccc12
97.2

* * *

TGT: SARS-CoV-2 3CLpro (Severe acute respiratory syndrome coronavirus 2, UniProt P0DTD1)
Construct: Each well contained 25 nM of SARS-CoV-2 3CL^Pro and eCFP-Venus biosensor (500 nM)
EXPERIMENT DESCRIPTION: biochemical
STUDY CONDITIONS: 20 µM; with DTT (4 mM)
ENDPOINT NAME: % inhibition @ 20 µM, DTT
Please format your answer as a value with the unit trailing.

Dear colleague, I am looking for the recorded % inhibition @ 20 µM, DTT of the following molecule: C[C@@H](NC(=O)C(=O)c1c[nH]c2cc(Br)ccc12)C(=O)O
0.8%

Could you share which % inhibition @ 20 µM, DTT value was measured for O=C(N[C@@H](Cc1c[nH]c2ccccc12)C(=O)O)C(=O)c1c[nH]c2cc(Br)ccc12 ?
4.1%

Fill in the blank: the reported % inhibition @ 20 µM, DTT of N=C(N)NCCC[C@H](NC(=O)C(=O)c1c[nH]c2ccc(Br)cc12)C(=O)O is ____.
2.4%

Look up % inhibition @ 20 µM, DTT for this molecule: O=C(N[C@@H](CO)C(=O)O)C(=O)c1c[nH]c2cc(Br)ccc12
2.9%

* * *

TGT: α-chymotrypsin from bovine pancreas (Bos taurus)
Construct: α-chymotrypsin from bovine pancreas (Sigma, C4129); purchased Sigma C4129; host or cells: bovine pancreas
EXPERIMENT DESCRIPTION: Serine protease assay, chymotrypsin
Assay type: biochemical
STUDY CONDITIONS: 10 µM; remaining enzyme activity
ENDPOINT NAME: % enzyme activity @ 10 µM, chymotrypsin (%)
State the answer as a number, implicitly in %.

Worked examples follow.
O=C(N[C@@H](Cc1c[nH]c2ccccc12)C(=O)O)C(=O)c1c[nH]c2cc(Br)ccc12; 99.6
CC(C)[C@H](NC(=O)C(=O)c1c[nH]c2ccc(Br)cc12)C(=O)O; 91.6
O=C(N[C@H](Cc1ccc(O)cc1)C(=O)O)C(=O)c1c[nH]c2ccc(Br)cc12; 89.2

Name the reported % enzyme activity @ 10 µM, chymotrypsin value associated with the compound CC(C)[C@H](NC(=O)C(=O)c1c[nH]c2cc(Br)ccc12)C(=O)O
105.0
